Items are presented alongside their recorded self-aminoacylation.
System: biotinyl-Leu-oxazolone
procedureSummary: self-aminoacylation, catalytic enhancement (BLO) (fold over background); higher = more active; k-Seq, kA / k0A0; sequences stand for … in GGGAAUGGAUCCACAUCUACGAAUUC…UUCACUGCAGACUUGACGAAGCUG
This sample holds only a part of the variants without activity.
Form field (numeric): enter value without unit.

                             sequencerecord  experimentalendpoint  reading
0  GAGUUUGCUAAUAGGCGCAAG [Fam3.1 aminoacylation ribozyme variant]   self-aminoacylation     1.02

INPUT: Any idea what self-aminoacylation came out for CUACACUUCAAGCAAUGGGUC [Fam1B.1 aminoacylation ribozyme variant] on biotinyl-Leu-oxazolone?
OUTPUT: 0.542

INPUT: Any idea what self-aminoacylation came out for AAGCUUGCUAAUAGGCGCAAG [Fam3.1 aminoacylation ribozyme variant] on biotinyl-Leu-oxazolone?
OUTPUT: 1.66

INPUT: Any idea what self-aminoacylation came out for CUACCUCAAACAAUCGCUCUG [Fam1A.1 aminoacylation ribozyme variant] on biotinyl-Leu-oxazolone?
OUTPUT: 1.27

* * *

System: biotinyl-Met-oxazolone
procedureSummary: self-aminoacylation, catalytic enhancement (BMO) (fold over background); higher = more active; k-Seq, kA / k0A0; sequences stand for … in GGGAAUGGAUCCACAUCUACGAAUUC…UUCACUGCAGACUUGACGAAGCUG
Variants at the floor of the assay were thinned out.
Classify by measured self-aminoacylation: Y if it is equal to or exceeds 1, N if it is smaller.

// known answers, use as guide
>>> print(df.to_string())
                             sequencerecord  cat
0  AUUCACCUAGGUCUUCGGGUC [Fam2.2 aminoacylation ribozyme variant]    Y
1  AUUAGCCUAGGUCAUCGGGUG [Fam2.2 aminoacylation ribozyme variant]    Y
2  AUUCGACUAGGUCAUCGGGUG [Fam2.2 aminoacylation ribozyme variant]    Y
3  CUACUUCAAACAAUGCGUCUG [Fam1A.1 aminoacylation ribozyme variant]    Y
4  AGUACUCUGGUCAUCGAGUGA [Fam2.1 aminoacylation ribozyme variant]    Y
5  CCUCACUUCAAGCAAUCGGUC [Fam1B.1 aminoacylation ribozyme variant]    Y
6  AUUCACCUAGGUCUUAGGGUG [Fam2.2 aminoacylation ribozyme variant]    Y
7  CCACACCUCAAGCGAUCGGUC [Fam1B.1 aminoacylation ribozyme variant]    Y
8  AAGUUAGCUAAUAAUCGCAAG [Fam3.1 aminoacylation ribozyme variant]    Y
9  AUUUACCUCGGUCAUCGGGUG [Fam2.2 aminoacylation ribozyme variant]    Y

Kindly consider the entry below.
INPUT: Hi, just wondering whether CUAGUUCAAACGAUCGGUCUG [Fam1A.1 aminoacylation ribozyme variant] shows self-aminoacylation of 1 or higher.
OUTPUT: N

* * *

Tested on: biotinyl-Trp-oxazolone
procedureSummary: self-aminoacylation, catalytic enhancement (BWO) (fold over background); higher = more active; k-Seq, kA / k0A0; sequences stand for … in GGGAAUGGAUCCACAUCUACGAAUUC…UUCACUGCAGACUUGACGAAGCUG
This sample holds only a part of the variants without activity.
Items are presented alongside their recorded self-aminoacylation.
Form field (numeric): enter value without unit.

Recorded results for 5 sequences are shown here.
>>> df
                             sequencerecord  reading
0  AUUACGCUGCUCAUCGAGUGA [Fam2.1 aminoacylation ribozyme variant]     2.69
1  CCACAGUUCACGCAAUCGGUC [Fam1B.1 aminoacylation ribozyme variant]      2.1
2  AAGUUUGCUAACAGUCGUAAG [Fam3.1 aminoacylation ribozyme variant]     7.81
3  AUUACCCUCGUCAUCGACUGA [Fam2.1 aminoacylation ribozyme variant]    0.555
4  AGGUUUGCUAAGAGUCGCAAG [Fam3.1 aminoacylation ribozyme variant]     1.54

# evaluate next
INPUT: For the sequence AUUACCCUGGUCAUCGUCUGA [Fam2.1 aminoacylation ribozyme variant] , what self-aminoacylation is on record?
OUTPUT: 0.531

* * *

Tested on: biotinyl-Trp-oxazolone
procedureSummary: self-aminoacylation, catalytic enhancement (BWO) (fold over background); higher = more active; k-Seq, kA / k0A0; sequences stand for … in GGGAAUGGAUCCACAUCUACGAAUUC…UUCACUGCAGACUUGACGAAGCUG
Variants at the floor of the assay were thinned out.
experimentalEndpoint: self-aminoacylation
Form field (numeric): enter value without unit.

>>> print(df.to_string())
                             sequencerecord  reading
0  ACACACUUCAAGCAAUCGGUU [Fam1B.1 aminoacylation ribozyme variant]     4.24
1  AUCACCCUGGUCGUCGAGUGA [Fam2.1 aminoacylation ribozyme variant]     1.41

INPUT: Any idea what self-aminoacylation came out for AUUACCCUGAUCACCGAGUGA [Fam2.1 aminoacylation ribozyme variant] on biotinyl-Trp-oxazolone?
OUTPUT: 6.75

INPUT: Any idea what self-aminoacylation came out for AUUCACCUUGGUCCUCGGGUG [Fam2.2 aminoacylation ribozyme variant] on biotinyl-Trp-oxazolone?
OUTPUT: 5.17

INPUT: Any idea what self-aminoacylation came out for AGGUUUACUAAUAGUCGCAAG [Fam3.1 aminoacylation ribozyme variant] on biotinyl-Trp-oxazolone?
OUTPUT: 1.81

INPUT: Any idea what self-aminoacylation came out for CCAAACUUCAAACAAUCGGUC [Fam1B.1 aminoacylation ribozyme variant] on biotinyl-Trp-oxazolone?
OUTPUT: 42

INPUT: Any idea what self-aminoacylation came out for AUUACCGUGGUCAUCGAGUGG [Fam2.1 aminoacylation ribozyme variant] on biotinyl-Trp-oxazolone?
OUTPUT: 1.72

INPUT: Any idea what self-aminoacylation came out for AGUCACCUAGGUCAUCGGGUG [Fam2.2 aminoacylation ribozyme variant] on biotinyl-Trp-oxazolone?
OUTPUT: 7.24

* * *

Tested on: biotinyl-Leu-oxazolone
procedureSummary: self-aminoacylation, catalytic enhancement (BLO) (fold over background); higher = more active; k-Seq, kA / k0A0; sequences stand for … in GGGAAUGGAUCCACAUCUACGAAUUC…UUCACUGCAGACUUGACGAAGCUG
Fewer inactive variants are shown than the library holds.
Classify by measured self-aminoacylation: true if it is equal to or exceeds 1, false if it is smaller.

// known answers, use as guide
>>> df
                             sequencerecord           targetofassay    cat
0  AGUCACCUAGGUCAUUGGGUG [Fam2.2 aminoacylation ribozyme variant]  biotinyl-Leu-oxazolone   true
1  CUACUUCAAAGAUUCGGUCUG [Fam1A.1 aminoacylation ribozyme variant]  biotinyl-Leu-oxazolone  false
2  CCACAGAUCAAGCAAUCGGUC [Fam1B.1 aminoacylation ribozyme variant]  biotinyl-Leu-oxazolone  false
3  AAGUUUGUUAGUAGUCGCAAG [Fam3.1 aminoacylation ribozyme variant]  biotinyl-Leu-oxazolone   true
4  AAGUUUGCUAGUAGUUGCAAG [Fam3.1 aminoacylation ribozyme variant]  biotinyl-Leu-oxazolone  false
5  CUACUUCAAAGAAUUGGUCUG [Fam1A.1 aminoacylation ribozyme variant]  biotinyl-Leu-oxazolone   true
6  AUUCACCUAGGUCAUCGCCUG [Fam2.2 aminoacylation ribozyme variant]  biotinyl-Leu-oxazolone   true

Kindly consider the entry below.
INPUT: Hi, just wondering whether CCACACUUCAAGGACUCGGUC [Fam1B.1 aminoacylation ribozyme variant] shows self-aminoacylation of 1 or higher.
OUTPUT: true

* * *

Test system: biotinyl-Val-oxazolone
procedureSummary: self-aminoacylation, catalytic enhancement (BVO) (fold over background); higher = more active; k-Seq, kA / k0A0; sequences stand for … in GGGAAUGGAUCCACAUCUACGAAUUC…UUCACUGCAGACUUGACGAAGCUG
This sample holds only a part of the variants without activity.
Classify by measured self-aminoacylation: fulfilled if it is equal to or exceeds 2, not fulfilled if it is smaller.

// known answers, use as guide
In [3]: df
Out[3]:
                             sequencerecord            cat
0  AUUACCCUGGUCGUCGAGUCA [Fam2.1 aminoacylation ribozyme variant]  not fulfilled
1  AAGUUUGAUAAUAGUCGCAAA [Fam3.1 aminoacylation ribozyme variant]  not fulfilled
2  AUUCCCCUAGGCCAUCGGGUG [Fam2.2 aminoacylation ribozyme variant]      fulfilled

INPUT: Hi, just wondering whether AUUCACCUAGGUCAUGGGGUG [Fam2.2 aminoacylation ribozyme variant] shows self-aminoacylation of 2 or higher.
OUTPUT: fulfilled

INPUT: Hi, just wondering whether AUGAUUGCUAAUAGUCGCAAG [Fam3.1 aminoacylation ribozyme variant] shows self-aminoacylation of 2 or higher.
OUTPUT: not fulfilled

INPUT: Hi, just wondering whether AUCACCCUGGUCAUCAAGUGA [Fam2.1 aminoacylation ribozyme variant] shows self-aminoacylation of 2 or higher.
OUTPUT: fulfilled

INPUT: Hi, just wondering whether AUUACGGUGGUCAUCGAGUGA [Fam2.1 aminoacylation ribozyme variant] shows self-aminoacylation of 2 or higher.
OUTPUT: fulfilled

INPUT: Hi, just wondering whether CAACACUCCAAGCAAUCGGUC [Fam1B.1 aminoacylation ribozyme variant] shows self-aminoacylation of 2 or higher.
OUTPUT: not fulfilled

INPUT: Hi, just wondering whether CCACUCUUCAAGUAAUCGGUC [Fam1B.1 aminoacylation ribozyme variant] shows self-aminoacylation of 2 or higher.
OUTPUT: not fulfilled
